test system: CAMK1D; settings: concentration: 1 μM, replicates: in singlicate; n = 1;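 note: KINOMEscan kinase panel screen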
Entry flag: TRUE if %Inh reaches 10%; FALSE if it does not.

COc1ccc(-c2coc3ccc(-c4nnc(SCc5cccc(C#N)c5)o4)cc23)cc1 | TRUE
Cc1nc(N(C)[C@H]2CN(C(=O)CC#N)CC[C@H]2C)c2cc[nH]c2n1 | TRUE
O=C(Nc1ccc2c(c1)OCO2)NC1CCN(c2ccnc(NCc3ccc(F)cc3)n2)CC1 [GSK1379859] | TRUE

In: Decide: is the reported value of %Inh for COc1cccc(C2=C(N(C)c3ccccc3)C(=O)NC2=O)c1 [SB-334865] equal to or greater than 10%?
Out: TRUE

In: Does the reported %Inh for CCC(=O)c1c(-c2ccccc2)c2cc(Cl)ccc2c(=O)n1Cc1cc(S(C)(=O)=O)n(CC(N)=O)n1 fall at or above the 10% mark?
Out: TRUE

In: Hi team, for CN1C(=O)C(Nc2ccccc2)=C(c2ccccc2)C1=O [SB-300079] , is the recorded %Inh at or above 10%?
Out: FALSE

In: Form field: %Inh at least 10%? Entry: Cc1cccc(-c2nc(Nc3ccc4c(cnn4C)c3)c3ccccc3n2)n1 [GW876731]
Out: FALSE

In: Determine whether measured %Inh meets or exceeds 10% for COC(=O)c1c(-c2ccccc2)c2cc(Br)ccc2c(=O)n1Cc1ccc(NC(=O)CCC(=O)O)cc1
Out: TRUE

* * *

system: CAMK2G; conditions: concentration: 1 μM, replicates: in singlicate; n = 1
Rule: %Inh under 10% gives NO, otherwise YES.

Use these answered entries as a reference point.
C[C@@H]1CC[C@H](C(=O)NC2CCCCC2)CN1c1cc(-c2ccc3c(N)n[nH]c3c2)nc(N)n1 | YES
Fc1cccc(CSc2nnc(-c3ccc4c(c3)CCO4)o2)c1 | YES
COc1cc(Nc2nccc(N3CCC(NC(=O)C(C)c4ccc(Cl)cc4)C3)n2)cc(OC)c1OC (stereo not drawn) | YES

In: Is the recorded value of %Inh equal to or greater than 10% for this molecule? COC(=O)c1c(-c2ccccc2)c2cc(C)ccc2c(=O)n1Cc1ccccc1
Out: NO

In: Quick check, %Inh >= 10%? COc1cccc(-n2cnc3c(N)ncnc32)c1
Out: NO

In: Exam item: decide whether the reported %Inh for Nc1ncnc2c1ncn2-c1cccc2ccccc12 is at least 10%.
Out: NO

* * *

system: RIOK2; details: concentration: 1 μM, replicates: in singlicate; n = 1
reportedMetric: %Inh (%)
Expressed in %, but write only the number.

The compound listed as Cc1cccc(-c2cc(-c3c[nH]nc3-c3ccccn3)ccn2)c1 has a reported %Inh of 0

Record O=c1cc(N2CCOCC2)nc2n(Cc3ccc(F)c(Cl)c3)ccn12 . Reported %Inh: 18

The reported %Inh of the compound Cc1ccc(Oc2ccc(Nc3ncnc4cc[nH]c34)cc2C)cn1 was 0

Memo: Cc1ccc(-c2ccc3c(ccc4sc5c(c43)NC[C@@H](C)N=C5N(C)C)n2)cn1 , reported %Inh: 0

Lookup result for COc1ccc(-c2coc3ccc(-c4nnc(SCc5cccc(C#N)c5)o4)cc23)cc1 ; measured %Inh: 5

Entry under test: Cc1ccccc1COc1cc(-n2cnc3cc(Cl)ccc32)sc1C(N)=O . Its %Inh was 27

So, COc1cc2ncn(-c3cc(OCCCc4ccccc4)c(C(N)=O)s3)c2cc1OC ? Its %Inh was 0

* * *

test system: ZAK; conditions: concentration: 1 μM, replicates: in singlicate; n = 1
Reported values of %Inh for individual entries
Remember to put the unit after the number in your answer.

Use the examples below as a reference point.
COc1cc2nccc(Nc3ccc(OCc4ccc(NC(C)=O)cc4)cc3)c2cc1OC.Cl | 10%
CCC(=O)c1c(-c2ccccc2)c2cc(Cl)ccc2c(=O)n1Cc1cc(S(C)(=O)=O)n(CC(F)F)n1 | 0%
CCn1c(-c2ccoc2)nc2cnccc21 | 34%
CCCC(=O)Nc1n[nH]c2ncc(-c3cccc4ccccc34)cc12 | 54%
COc1cc2ncn(-c3cc(OCc4ccncc4Br)c(C(N)=O)s3)c2cc1OC | 15%
COc1ccc(-c2cc3c(C)nc(N)nc3n([C@H]3CC[C@H](OCCO)CC3)c2=O)cn1 | 1%
COc1ccc(-c2coc3ccc(-c4nnc(SCc5cccc(C#N)c5)o4)cc23)cc1 | 23%
CN1C(=O)C(Nc2ccccc2)=C(c2ccccc2)C1=O | 0%
Cc1nnc(-c2ccc3ncn(-c4ccc(S(C)=O)cc4)c3c2)o1 (centres unmarked) | 12%
C[C@@H]1CC[C@H](C(=O)NC2CCCCC2)CN1c1cc(-c2ccc3c(N)n[nH]c3c2)nc(N)n1 | 9%

Alright, here's another compound for you.
%Inh for ZAK with input COc1ccc(-n2cnc3c(N)ncnc32)cc1 equals 15%

* * *

Examples of compounds with documented %Inh follow.
tested on: PHKG1; conditions: concentration: 1 μM, replicates: in singlicate; n = 1
Number first, unit second.

Cl.c1ccc(Cn2cnc3cc(Nc4ncnc5ccccc45)ccc32)cc1 | 0%

%Inh measured on Cc1nc(N(C)[C@H]2CN(C(=O)CC#N)CC[C@H]2C)c2cc[nH]c2n1 = 0%

Reported %Inh for Cc1cccc(-c2nc(Nc3ccc4c(cnn4C)c3)c3ccccc3n2)n1 was 0%

The compound listed as COc1ccc(-c2cc3c(C)nc(N)nc3n([C@H]3CC[C@H](O)CC3)c2=O)cn1 shows %Inh equal to 9%

get_value(item= O=C(NCCNc1ccnc(Nc2ccc(F)cc2)n1)Nc1ccc2c(c1)OCO2 , readout=%Inh) returns 8%

* * *

system: GSK3B; settings: concentration: 1 μM, replicates: in singlicate; n = 1
We begin with a simple list: items and their reported %Inh.

The following molecules have reported results that may help.
COc1ccc(Nc2nccc(N3CCC(NS(=O)(=O)c4ccc(NC(C)=O)cc4)C3)n2)cc1 (stereo not drawn) | 7%
Cc1cccc(-c2cc(-c3c[nH]nc3-c3ccccn3)ccn2)c1 | 7%
Nc1ncnc2c1ncn2-c1cccc2ccccc12 | 23%

Reported %Inh ( COc1ccc(-c2cc3c(C)nc(N)nc3n([C@H]3CC[C@H](OCCO)CC3)c2=O)cn1 ) = 1%

Please fill in: %Inh reported for COC(=O)c1c(-c2ccccc2)c2cc(Br)ccc2c(=O)n1Cc1ccc(NC(=O)CCC(=O)O)cc1 = 15%

The molecule listed as CCC(=O)c1c(-c2ccccc2)c2cc(Cl)ccc2c(=O)n1Cc1cc(S(C)(=O)=O)n(CCC(C)(C)O)n1 shows %Inh equal to 0%

* * *

test system: PYK2; construct: gene PTK2B; conditions: concentration: 1 μM, replicates: in singlicate; n = 1
reportedMetric: %Inh (%)
Field: numeric (%). Do not append units.

Consider the following illustrative entries.
Cc1nnc(-c2ccc3ncn(-c4ccc(S(C)=O)cc4)c3c2)o1 (stereo not drawn) | 12
CC(C)(C)c1ccc(C(=O)Nc2cn3cc(-c4ccccc4)ccc3n2)cc1 | 0
COc1cc2ncn(-c3cc(OCc4ccncc4)c(C(N)=O)s3)c2cc1OC | 0

Note to self: %Inh recorded for Nc1ncnc2c1ncn2-c1cccc(F)c1 was 6

* * *

test system: RSK4(Kin.Dom.2-C-terminal); construct: gene RPS6KA6; conditions: concentration: 1 μM, replicates: in singlicate; n = 1
Classify by measured %Inh: TRUE if it is equal to or exceeds 2%, FALSE if it is smaller.

Known results for molecules:
Nc1n[nH]c2nnc(-c3ccccc3)c(-c3ccccc3)c12 | TRUE
Cc1c(Cn2c(C)nn3c(=O)cc(N4CCO[C@H](C)C4)nc23)cccc1C(F)(F)F | FALSE
O=c1cc(N2CCOCC2)nc2n(Cc3ccc(F)c(Cl)c3)ccn12 | TRUE
O=C(Nc1ccc2c(c1)OCO2)NC1CCN(c2ccnc(NCc3ccc(F)cc3)n2)CC1 | FALSE
COc1cc(OC)cc(-c2cc3cnc(N)nc3nc2NC(=O)NC(C)(C)C)c1 | FALSE
COc1cccc(-n2cnc3c(N)ncnc32)c1 | TRUE

Now turn to the next molecule.
In: Determine whether measured %Inh meets or exceeds 2% for CCC(=O)c1c(-c2ccccc2)c2cc(Cl)ccc2c(=O)n1Cc1cc(S(C)(=O)=O)n(CCC(C)(C)O)n1
Out: TRUE

* * *

tested on: GRK1; settings: concentration: 1 μM, replicates: in singlicate; n = 1
reportedMetric: %Inh (%)
Your answer should be a plain number; it is taken to be in %.

Here is how some molecules turned out for %Inh.
Cc1cccc(-c2nc(Nc3ccc4c(cnn4C)c3)c3ccccc3n2)n1 | 1
Nc1ncnc2c1ncn2-c1cccc2ccccc12 | 31

%Inh on GRK1 for Nc1ncnc2c1ncn2-c1ccc(Cl)cc1 is 0

Item COc1cccc(C2=C(N(C)c3ccccc3)C(=O)NC2=O)c1 ; assay system GRK1; %Inh reported as 5
